System: T1, ZFP SBS#702 (synthetic)
T1 chain: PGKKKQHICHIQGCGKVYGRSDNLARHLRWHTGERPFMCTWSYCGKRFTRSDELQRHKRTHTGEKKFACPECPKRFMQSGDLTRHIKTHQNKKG
Test Name: EMSA
Assay Context: tags: MBP fusion
Assay Endpoint: Kd (nM)
Provide the reading as a plain figure in nM.

Prompt line: Note Kd for the binder shown: GCAGCGGAGC (dsDNA) DNA 1: GCAGCGGAGC DNA 2: GCTCCGCTGC
Response line: 73.5
